Reported optical density by item:
# target: T1, Goat anti-Human Kappa
# T1 construct: Positive control; also called biotinylated goat anti-human kappa light chain
# experiment-summary: ELISA; positive control; further: test concentration or dose not given here
Reply numerically in OD, unit not repeated.

binder="365_G01 (antibody, V domains shown, VH/VL only) VH: EVQLLESGGGLVQPGGSLRLSCAASGFTFDSYGMNWVRQAPGKGLEWVAGINYNSGYKSYADSVKGRFTISRDNSKNTLYLQMNSLRAEDTAVYYCARSANWHDTALDYWGQGTLVTVSS VL: DIQMTQSPSSLSASVGDRVTITCRASQSILTYVNWYQQKPGKAPKLLIYATTSRASGVPSRFSGSGSGTDFTLTISSLQPEDFATYYCQQSYDSPLTFGGGTKVEIK" value_units=OD measured=3.45
binder="367_A02 (antibody, V domains shown, VH/VL only) VH: EVQLLESGGGLVQPGGSLRLSCAASGFTFDSYGMNWVRQAPGKGLEWVSSINYNSGYKGYADSVKGRFTISRDNSKNTLYLQMNSLRAEDTAVYYCARGATWHDTHLDYWGQGTLVTVSS VL: DIQMTQSPSSLSASVGDRVTITCRASQSIISYLNWYQQKPGKAPKLLIYAVTSRASGVPSRFSGSGSGTDFTLTISSLQPEDFATYYCQQSYDTPLTFGGGTKVEIK" value_units=OD measured=3.58
binder="365_D09 (antibody, V domains shown, VH/VL only) VH: EVQLLESGGGLVQPGGSLRLSCAASGFTFSSYGMHWVRQAPGKGLEWVSGINYNSGYTSYADSVKGRFTISRDNSKNTLYLQMNSLRAEDTAVYYCARSANWHDTALDYWGQGTLVTVSS VL: DIQMTQSPSSLSASVGDRVTITCRASQSILSYLNWYQQKPGKAPKLLIYAATSRASGVPSRFSGSGSGTDFTLTISSLQPEDFATYYCQQSDESPLTFGGGTKVEIK" value_units=OD measured=3.38

Find the recorded optical density belonging to 374_C10 (antibody, V domains shown, VH/VL only) VH: EVQLLESGGGLVQPGGSLRLSCAASGFTFSSYSMNWVRQAPGKGLEWVSSINYNGGYKGYADSVKGRFTISRDNSKNTLYLQMNSLRAEDTAVYYCARGATWHDTHLDYWGQGTLVTVSS VL: DIQMTQSPSSLSASVGDRVTITCRASQSIVTYLNWYQQKPGKAPKLLIYAATSLASGVPSRFSGSGSGTDFTLTISSLQPEDFATYYCQQSYNTPLTFGGGTKVEIK and report it. 3.08

Thanks! And 366_D04 (antibody, V domains shown, VH/VL only) VH: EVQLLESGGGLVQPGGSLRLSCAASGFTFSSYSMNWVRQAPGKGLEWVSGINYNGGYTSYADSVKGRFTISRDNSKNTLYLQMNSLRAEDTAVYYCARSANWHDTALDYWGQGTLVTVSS VL: DIQMTQSPSSLSASVGDRVTITCRASQSISSYVNWYQQKPGKAPKLLIYATTSRASGVPSRFSGSGSGTDFTLTISSLQPEDFATYYCQQSYETPLTFGGGTKVEIK ? 3.46
